Reference source: patent US11897862B2

- measured on: IKZF2 (Homo sapiens, UniProt Q96SW2+Q9UKS7)
- Sequence (Q9UKS7 1-500 isoform Q9UKS7-2): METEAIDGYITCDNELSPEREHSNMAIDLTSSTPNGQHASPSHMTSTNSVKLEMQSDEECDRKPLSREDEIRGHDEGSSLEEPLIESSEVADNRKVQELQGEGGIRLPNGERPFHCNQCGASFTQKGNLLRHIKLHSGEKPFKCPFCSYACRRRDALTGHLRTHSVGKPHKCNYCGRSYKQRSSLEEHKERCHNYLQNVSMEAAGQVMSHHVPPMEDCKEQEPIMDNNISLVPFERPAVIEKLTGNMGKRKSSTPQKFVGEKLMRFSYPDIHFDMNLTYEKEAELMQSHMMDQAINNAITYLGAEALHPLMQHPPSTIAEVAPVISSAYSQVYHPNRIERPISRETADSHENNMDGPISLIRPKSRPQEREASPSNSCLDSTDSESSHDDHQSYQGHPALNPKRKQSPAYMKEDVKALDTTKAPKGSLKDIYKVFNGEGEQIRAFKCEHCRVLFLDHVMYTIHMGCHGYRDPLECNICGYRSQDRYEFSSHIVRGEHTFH
- Sequence (Q96SW2 whole entry): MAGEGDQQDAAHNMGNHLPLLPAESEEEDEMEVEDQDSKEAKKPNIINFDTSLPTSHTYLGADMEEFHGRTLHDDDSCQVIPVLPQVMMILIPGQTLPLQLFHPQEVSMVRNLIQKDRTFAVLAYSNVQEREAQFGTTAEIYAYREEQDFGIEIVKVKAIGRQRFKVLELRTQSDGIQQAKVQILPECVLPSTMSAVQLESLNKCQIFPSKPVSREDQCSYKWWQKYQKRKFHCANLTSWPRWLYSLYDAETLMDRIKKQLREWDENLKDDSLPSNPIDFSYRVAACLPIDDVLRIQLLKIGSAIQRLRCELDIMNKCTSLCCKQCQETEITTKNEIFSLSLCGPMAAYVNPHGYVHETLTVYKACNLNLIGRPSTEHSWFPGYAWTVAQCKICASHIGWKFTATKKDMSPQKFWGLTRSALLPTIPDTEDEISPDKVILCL
- Sequence (Q16531 whole entry partner): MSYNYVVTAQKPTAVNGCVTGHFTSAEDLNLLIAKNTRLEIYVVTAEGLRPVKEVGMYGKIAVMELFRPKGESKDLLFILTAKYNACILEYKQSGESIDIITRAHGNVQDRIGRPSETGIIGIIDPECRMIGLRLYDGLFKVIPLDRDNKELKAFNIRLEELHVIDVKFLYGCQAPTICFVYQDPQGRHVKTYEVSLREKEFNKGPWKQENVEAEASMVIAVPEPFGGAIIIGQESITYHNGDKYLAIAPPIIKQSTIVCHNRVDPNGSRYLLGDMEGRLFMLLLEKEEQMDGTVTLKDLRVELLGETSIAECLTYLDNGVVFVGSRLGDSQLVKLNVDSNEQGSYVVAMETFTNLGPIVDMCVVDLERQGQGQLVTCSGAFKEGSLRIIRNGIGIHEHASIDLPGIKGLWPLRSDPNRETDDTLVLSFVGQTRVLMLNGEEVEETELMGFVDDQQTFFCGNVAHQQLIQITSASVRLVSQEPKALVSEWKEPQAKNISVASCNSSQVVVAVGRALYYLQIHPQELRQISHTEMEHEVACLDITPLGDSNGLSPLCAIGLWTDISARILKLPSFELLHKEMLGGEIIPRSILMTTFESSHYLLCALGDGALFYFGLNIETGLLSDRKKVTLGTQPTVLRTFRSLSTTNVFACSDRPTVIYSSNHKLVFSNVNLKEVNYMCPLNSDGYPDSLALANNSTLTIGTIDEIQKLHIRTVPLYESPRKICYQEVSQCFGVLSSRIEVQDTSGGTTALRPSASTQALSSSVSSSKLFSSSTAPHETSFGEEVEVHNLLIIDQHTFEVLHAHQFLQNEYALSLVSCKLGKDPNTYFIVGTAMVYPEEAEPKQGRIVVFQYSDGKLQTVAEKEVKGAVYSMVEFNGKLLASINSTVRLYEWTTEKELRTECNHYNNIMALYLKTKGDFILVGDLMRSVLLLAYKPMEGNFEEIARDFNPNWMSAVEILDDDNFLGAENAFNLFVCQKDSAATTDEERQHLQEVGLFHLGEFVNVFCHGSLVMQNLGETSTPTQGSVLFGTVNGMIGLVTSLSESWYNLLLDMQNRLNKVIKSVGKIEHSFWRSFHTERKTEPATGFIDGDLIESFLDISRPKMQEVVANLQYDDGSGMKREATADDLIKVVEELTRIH
- test description: HEK293 HiBiT in vitro degradation of IKZF2
- Format: cell-based
- Set-up: expressed in transfected cells
- recorded conditions: HEK293, HEK293 HiBiT; maximum degradation at the highest concentration tested
property measured: Dmax (%)

>  <compound>
O=C1CC[C@H](N2Cc3cc(C[C@H]4CCCC[C@@H]4NC4CCCCC4)ccc3C2=O)C(=O)N1 (single isomer, unassigned)

>  <Dmax (%)>
97

$$$$

1: CC(CCC(F)F)N[C@H]1CCCO[C@@H]1Cc1ccc2c(c1F)CN(C1CCC(=O)NC1=O)C2=O (some centres unmarked)
2: [2H]c1c([2H])c([2H])c(CN(Cc2c([2H])c([2H])c([2H])c([2H])c2[2H])[C@H]2CCCC[C@@H]2Cc2ccc3c(c2)CN(C2CCC(=O)NC2=O)C3=O)c([2H])c1[2H] (some centres unmarked)
Please state the entry with greater Dmax among 1 and 2 . Let me know the label of the one you choose.
1
(1: 93%, 2: 57%)

---

- measured on: IKZF1 (Homo sapiens, UniProt Q13422+Q96SW2)
- Construct: expressed in transfected cells
- Sequence (Q13422 whole entry): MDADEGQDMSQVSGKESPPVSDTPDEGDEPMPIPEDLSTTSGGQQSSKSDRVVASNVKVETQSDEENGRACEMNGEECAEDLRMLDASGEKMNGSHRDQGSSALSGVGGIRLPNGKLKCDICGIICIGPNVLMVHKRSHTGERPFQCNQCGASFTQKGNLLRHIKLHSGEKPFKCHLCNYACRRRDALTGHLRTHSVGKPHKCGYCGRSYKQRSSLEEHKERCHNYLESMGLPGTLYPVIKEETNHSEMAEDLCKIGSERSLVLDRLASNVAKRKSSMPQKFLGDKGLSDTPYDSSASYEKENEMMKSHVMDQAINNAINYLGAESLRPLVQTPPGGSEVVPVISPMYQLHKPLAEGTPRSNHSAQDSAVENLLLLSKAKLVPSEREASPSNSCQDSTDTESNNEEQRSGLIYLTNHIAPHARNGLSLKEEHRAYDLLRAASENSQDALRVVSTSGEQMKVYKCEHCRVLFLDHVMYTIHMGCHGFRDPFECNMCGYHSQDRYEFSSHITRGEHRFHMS
- Sequence (Q96SW2 whole entry): as the sequence (Q96SW2 whole entry) above
- Sequence (Q16531 whole entry partner): as the sequence (Q16531 whole entry partner) above
- test description: HEK293 HiBiT in vitro degradation of IKZF1
- Format: cell-based
- recorded conditions: HEK293 HiBiT, 18-24 hr incubation, normalized to DMSO control; read-out: IKZF1 EC50
property measured: DC50 (nM)

>  <molecule>
O=C1CCC(N2Cc3cc(C[C@H]4CCCC[C@@H]4NC4CCCOCC4)ccc3C2=O)C(=O)N1 (some centres unmarked)

>  <DC50 [nM]>
68

$$$$
>  <molecule>
O=C1CC[C@@H](N2Cc3c(ccc(C[C@H]4OCCC[C@@H]4N[C@H]4CC[C@H](C(F)F)CC4)c3F)C2=O)C(=O)N1 (single isomer, unassigned)

>  <DC50 [nM]>
448

$$$$
>  <molecule>
CC(N[C@H]1CCCC[C@@H]1Cc1ccc2c(c1)CN(C1CCC(=O)NC1=O)C2=O)C1CC1 (some centres unmarked)

>  <DC50 [nM]>
242

$$$$
>  <molecule>
CC(N[C@H]1CCCC[C@@H]1Cc1ccc2c(c1)CN(C1CCC(=O)NC1=O)C2=O)C1CC(F)(F)C1 (single isomer, unassigned) [Example 137]

>  <DC50 [nM]>
54

$$$$
>  <molecule>
O=C1CCC(N2Cc3c(ccc(C[C@H]4CCCC[C@@H]4NC4CCOC4)c3F)C2=O)C(=O)N1 (some centres unmarked) [Example 189]

>  <DC50 [nM]>
39

$$$$
>  <molecule>
CC(C)CCN[C@H]1CCCC[C@@H]1Cc1ccc2c(c1)CN(C1CCC(=O)NC1=O)C2=O (some centres unmarked)

>  <DC50 [nM]>
93

$$$$
>  <molecule>
O=C1CCC(N2Cc3cc(C[C@H]4CCCC[C@@H]4NC4CCc5c(C(F)(F)F)n[nH]c5C4)ccc3C2=O)C(=O)N1 (some centres unmarked) [Example 375]

>  <DC50 [nM]>
48

$$$$
>  <molecule>
O=C1CCC(N2Cc3cc(C[C@H]4CCCC[C@@H]4NC4CCCC[C@@H]4F)ccc3C2=O)C(=O)N1 (some centres unmarked) [Example 106]

>  <DC50 [nM]>
79

$$$$

P: O=C1CCC(N2Cc3cc(C[C@H]4CCCC[C@@H]4NCCCC(F)F)ccc3C2=O)C(=O)N1 (some centres unmarked)
Q: O=C1CCC(N2Cc3cc(C[C@H]4CCCC[C@@H]4NC4CCc5c(C(F)(F)F)n[nH]c5C4)ccc3C2=O)C(=O)N1 (single isomer, unassigned) [Example 363]
Looking only at measured DC50, which entry is lower, P or Q ? Let me know the label of the one you choose.
Q

---

- measured on: IKZF1 (Homo sapiens, UniProt Q13422+Q96SW2)
- Construct: expressed in transfected cells
- test description: HEK293 HiBiT in vitro degradation of IKZF1
- Format: cell-based
- recorded conditions: HEK293, HEK293 HiBiT; maximum degradation at the highest concentration tested
property measured: Dmax (%)

# annotated cases, reported Dmax shown
>  <molecule>
COCC1CCC(N[C@H]2CCCC[C@@H]2Cc2ccc3c(c2)CN(C2CCC(=O)NC2=O)C3=O)CC1 (single isomer, unassigned)

>  <result units>
%

>  <Dmax>
35

$$$$
>  <molecule>
O=C1CCC(N2Cc3cc(C[C@H]4CCCC[C@@H]4NC4CCc5c(C(F)(F)F)n[nH]c5C4)ccc3C2=O)C(=O)N1 (single isomer, unassigned) [Example 362]

>  <result units>
%

>  <Dmax>
39

$$$$
>  <molecule>
[2H]C1(N[C@H]2CCCC[C@@H]2Cc2ccc3c(c2F)CN(C2CCC(=O)NC2=O)C3=O)CC2(CC2)C1 (stereo partly shown)

>  <result units>
%

>  <Dmax>
45

$$$$

a: CCC(CC)N[C@H]1CCCC[C@@H]1Cc1ccc2c(c1)CN(C1CCC(=O)NC1=O)C2=O (stereo partly shown)
b: O=C1CCC(N2Cc3cc(C[C@H]4CCCC[C@@H]4NC4CCCC[C@@H]4F)ccc3C2=O)C(=O)N1 (stereo partly shown)
Please state the entry with greater Dmax among a and b . Let me know the label of the one you choose.
b

---

- measured on: IKZF1 (Homo sapiens, UniProt Q13422+Q96SW2)
- Construct: expressed in transfected cells
- test description: HEK293 HiBiT in vitro degradation of IKZF1
- Type: cell-based
- recorded conditions: HEK293, HEK293 HiBiT; maximum degradation at the highest concentration tested
property measured: Dmax (%)

>  <molecule>
O=C1CCC(N2Cc3cc(C[C@H]4CCCC[C@@H]4NC4CCc5[nH]nc(C(F)(F)F)c5C4)ccc3C2=O)C(=O)N1 (stereo partly shown)

>  <result units>
%

>  <Dmax>
47

$$$$
>  <molecule>
O=C1CCC(N2Cc3cc(C[C@H]4CCCC[C@@H]4NC4CCC(C(F)F)CC4)ccc3C2=O)C(=O)N1 (stereo partly shown)

>  <result units>
%

>  <Dmax>
34

$$$$
>  <molecule>
O=C1CCC(N2Cc3cc(C[C@H]4CCCC[C@@H]4NCc4cncs4)ccc3C2=O)C(=O)N1 (stereo partly shown)

>  <result units>
%

>  <Dmax>
32

$$$$
>  <molecule>
O=C1CCC(N2Cc3cc(C[C@H]4CCCC[C@@H]4NC4CCCC[C@H]4F)ccc3C2=O)C(=O)N1 (stereo partly shown)

>  <result units>
%

>  <Dmax>
36

$$$$

---

- measured on: IKZF1 (Homo sapiens, UniProt Q13422+Q96SW2)
- Construct: expressed in transfected cells
- test description: HEK293 HiBiT in vitro degradation of IKZF1
- Format: cell-based
- recorded conditions: HEK293 HiBiT, 18-24 hr incubation, normalized to DMSO control; read-out: IKZF1 EC50
property measured: DC50 (µM)

# annotated cases, reported DC50 shown
>  <compound>
O=C1CCC(N2Cc3cc(C[C@H]4CCCC[C@@H]4NC4CC5(CC5)C4)ccc3C2=O)C(=O)N1 (stereo partly shown)

>  <DC50 (µM)>
0.098

$$$$
>  <compound>
O=C1CCC(N2Cc3cc(C[C@H]4CCCC[C@@H]4NC4CC5(CCC(F)(F)CC5)C4)ccc3C2=O)C(=O)N1 (stereo partly shown)

>  <DC50 (µM)>
0.074

$$$$

1: CC(CCCC(F)(F)F)N[C@H]1CCCO[C@@H]1Cc1ccc2c(c1F)CN(C1CCC(=O)NC1=O)C2=O (stereo partly shown)
2: O=C1CCC(N2Cc3cc(C[C@H]4CCCC[C@@H]4NC4CCC(C(F)(F)F)CC4)ccc3C2=O)C(=O)N1 (single isomer, unassigned) [Example 122]
Please state the entry with greater DC50 among 1 and 2 . Let me know the label of the one you choose.
1
(1: 0.371 µM, 2: 0.057 µM)

---

- measured on: IKZF2 (Homo sapiens, UniProt Q96SW2+Q9UKS7)
- test description: HEK293 HiBiT in vitro degradation of IKZF2
- Format: cell-based
- Parameters: expressed in transfected cells
- recorded conditions: HEK293, HEK293 HiBiT; maximum degradation at the highest concentration tested
property measured: Dmax (%)

# annotated cases, reported Dmax shown
>  <compound>
CC(C)(CCN[C@H]1CCCC[C@@H]1Cc1ccc2c(c1)CN(C1CCC(=O)NC1=O)C2=O)C(F)(F)F (stereo partly shown)

>  <result units>
%

>  <reported measurement>
94

$$$$
>  <compound>
[2H]C1(N[C@H]2CCCC[C@@H]2Cc2ccc3c(c2F)CN(C2CCC(=O)NC2=O)C3=O)CC2(CC2)C1 (stereo partly shown)

>  <result units>
%

>  <reported measurement>
98

$$$$

I: CCOC1CC(N[C@H]2CCCC[C@@H]2Cc2ccc3c(c2)CN(C2CCC(=O)NC2=O)C3=O)C1 (stereo partly shown)
II: O=C1CCC(N2Cc3cc(C[C@H]4CCCC[C@@H]4NCc4ncccc4F)ccc3C2=O)C(=O)N1 (stereo partly shown)
Looking only at measured Dmax, which entry is lower, I or II ? Let me know the label of the one you choose.
II
(II: 57%, I: 95%)
